Assay: Half-life, distribution and clearance of AMD in mice
Format: in vivo
Settings: mouse, blood, intravenous, AMD dispersed in 5% polyoxyethylene castor oil

# compound.string, half-life
records = [
    ("NC12CC3CC(CC(C3)C1)C2", "~24 h"),
]
